target: 5-hydroxytryptamine receptor 2B (Homo sapiens); assay: Agonist activity at human 5HT2B receptor expressed in HEK293 cells assessed as calcium flux by FLIPR assay
Sequence (P41595 whole entry): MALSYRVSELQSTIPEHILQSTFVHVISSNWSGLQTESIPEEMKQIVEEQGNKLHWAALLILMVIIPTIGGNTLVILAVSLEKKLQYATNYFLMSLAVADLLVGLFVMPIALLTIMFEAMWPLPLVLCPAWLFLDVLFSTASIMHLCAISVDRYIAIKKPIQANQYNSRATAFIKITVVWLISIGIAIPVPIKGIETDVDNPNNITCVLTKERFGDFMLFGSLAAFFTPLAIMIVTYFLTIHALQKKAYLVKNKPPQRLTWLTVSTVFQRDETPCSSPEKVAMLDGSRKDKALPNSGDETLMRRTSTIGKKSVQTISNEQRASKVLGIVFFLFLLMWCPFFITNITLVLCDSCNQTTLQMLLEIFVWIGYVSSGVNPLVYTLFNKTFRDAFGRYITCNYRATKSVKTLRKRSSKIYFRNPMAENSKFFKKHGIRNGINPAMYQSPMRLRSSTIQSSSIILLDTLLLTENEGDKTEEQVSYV
READOUT_NAME: pEC50
Would you please state pEC50, meaning minus log10 of the concentration in mol/L, as a bare number?

Example molecules with recorded pEC50:
NC[C@H]1C[C@@H]1c1c(F)cccc1F (relative stereo) ... 5.48
Cc1cccc([C@H]2C[C@@H]2CN)c1 (relative stereo) ... 7.19
NC[C@H]1C[C@@H]1c1cccc(F)c1 (relative stereo) ... 8.44

// lookup pEC50 | system=5-hydroxytryptamine receptor 2B (Homo sapiens) | key= NC[C@H]1C[C@@H]1c1cccc(Br)c1 (relative stereo) 6.85

Could you do the same for NC[C@H]1C[C@@H]1c1cccc(Cl)c1 (relative stereo) , please? 7.23

Param item: NC[C@H]1C[C@@H]1c1cccc(F)c1F (relative stereo) 6.44

What do you have for `Cc1ccc(Cl)c([C@H]2C[C@@H]2CN)c1F` ? 6.94

Then NC[C@H]1C[C@@H]1c1ccc(Cl)cc1 (relative stereo) ? 6.39

Same again, this time with COc1cccc([C@H]2C[C@@H]2CN)c1 (relative stereo) 7.12

----------
biological target: 5-hydroxytryptamine receptor 2C (Homo sapiens, UniProt P28335); experiment: Agonist activity at human 5HT2C receptor expressed in HEK293 cells assessed as calcium flux by FLIPR assay
Sequence (P28335 whole entry): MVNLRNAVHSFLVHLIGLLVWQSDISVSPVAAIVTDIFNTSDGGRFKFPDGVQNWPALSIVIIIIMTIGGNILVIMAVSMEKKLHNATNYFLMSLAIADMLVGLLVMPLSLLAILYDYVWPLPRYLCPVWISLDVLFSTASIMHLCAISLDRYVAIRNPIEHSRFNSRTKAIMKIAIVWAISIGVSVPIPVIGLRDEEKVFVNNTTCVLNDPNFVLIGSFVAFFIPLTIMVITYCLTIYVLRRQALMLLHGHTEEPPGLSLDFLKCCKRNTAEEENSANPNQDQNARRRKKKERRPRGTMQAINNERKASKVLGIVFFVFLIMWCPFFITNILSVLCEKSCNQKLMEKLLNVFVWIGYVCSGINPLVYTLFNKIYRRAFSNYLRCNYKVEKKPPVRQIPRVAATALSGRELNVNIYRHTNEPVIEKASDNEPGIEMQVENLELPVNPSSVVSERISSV
Catalogue of pEC50 values
Scale: negative log10 of molar concentration, which is what pEC50 denotes.

Cc1ccc(Cl)c([C@H]2C[C@@H]2CN)c1F ... 7.89
Cc1ccc([C@H]2C[C@@H]2CN)cc1C (relative stereo) ... 7.46
NC[C@H]1C[C@@H]1c1ccc(Br)cc1 (relative stereo) ... 6.86
NC[C@H]1C[C@@H]1c1ccccc1F ... 7.54
Cc1ccc([C@H]2C[C@@H]2CN)cc1 (relative stereo) ... 6.87

Find pEC50 (5-hydroxytryptamine receptor 2C (Homo sapiens, UniProt P28335)) for the entry COc1cccc([C@H]2C[C@@H]2CN)c1 (relative stereo) 7.80

Param item: NC[C@H]1C[C@@H]1c1ccccc1O (relative stereo) 6.79

Recorded values, source BindingDB's records for doi:10.1021/jm801354e.
